experimental-system: FGF14:Nav1.6 C-tail complex (Homo sapiens, UniProt Q92915+Q9UQD0)
Construct: polymerase chain reaction (PCR) amplification of the FGF14 open reading frame (nt 1–855); C-terminal fragment of Nav1.6 (amino acids 1763–1976) fused with CD4ΔC-tail (amino acids 1–395); expressed in transfected cells
Sequence (Q92915 1-252 isoform Q92915-2): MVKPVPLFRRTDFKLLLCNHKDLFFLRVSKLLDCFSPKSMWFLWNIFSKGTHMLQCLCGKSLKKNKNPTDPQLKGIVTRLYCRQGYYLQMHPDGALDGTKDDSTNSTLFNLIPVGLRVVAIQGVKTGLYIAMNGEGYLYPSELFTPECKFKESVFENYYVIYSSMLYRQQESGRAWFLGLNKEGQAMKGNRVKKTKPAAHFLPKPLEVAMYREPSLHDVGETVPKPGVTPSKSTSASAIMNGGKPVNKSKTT
Sequence (Q9UQD0 1763-1976 limits assumed): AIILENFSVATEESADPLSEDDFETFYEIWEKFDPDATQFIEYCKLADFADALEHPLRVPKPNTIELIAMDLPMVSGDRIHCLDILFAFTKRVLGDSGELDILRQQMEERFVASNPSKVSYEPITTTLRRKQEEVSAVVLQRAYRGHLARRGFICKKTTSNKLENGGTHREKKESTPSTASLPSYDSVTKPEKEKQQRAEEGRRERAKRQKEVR
protocol-text: Split-luciferase complementation assay (LCA) in Clone V double stable HEK293 cells
Type: cell-based
condition-label: CC_NCI screening; LCA luminescence, biological replicate Set 2; normalized to on-plate 0.3% DMSO controls (n=16 per plate)
Counter-ions that a name gives are not always drawn.
readout-name: Split Luciferase Assay %Lum Set 2 (%)

compound: CO[C@@H]1[C@H](N(C)C(=O)c2ccccc2)C[C@H]2O[C@]1(C)n1c3ccccc3c3c4c(c5c6ccccc6n2c5c31)C(=O)NC4
number: 67.62
--
compound: Cn1cc(C2=C(c3ccc(Cl)cc3Cl)C(=O)NC2=O)c2ccccc21
number: 106.11
--
compound: CNC(=O)c1cc(Oc2ccc(NC(=O)Nc3ccc(Cl)c(C(F)(F)F)c3)c(F)c2)ccn1
number: 47.85
--
compound: COc1cc(Nc2c(C#N)cnc3cc(OCCCN4CCN(C)CC4)c(OC)cc23)c(Cl)cc1Cl [BOSUTINIB]
number: 94.67
--
compound: CC(C)(C)c1nc(-c2cccc(NS(=O)(=O)c3c(F)cccc3F)c2F)c(-c2ccnc(N)n2)s1.CS(=O)(=O)O [Dabrafenib mesylate]
number: 121.72
--
compound: Cc1cn(-c2cc(NC(=O)c3ccc(C)c(Nc4nccc(-c5cccnc5)n4)c3)cc(C(F)(F)F)c2)cn1 [NILOTINIB]
number: 122.76
--
compound: CCCS(=O)(=O)Nc1ccc(F)c(C(=O)c2c[nH]c3ncc(-c4ccc(Cl)cc4)cc23)c1F [PLX4032]
number: 47.85
--
compound: O=C(c1cc(Cc2n[nH]c(=O)c3ccccc23)ccc1F)N1CCN(C(=O)C2CC2)CC1
number: 92.59
--
compound: Cc1ccc(Nc2nccc(N(C)c3ccc4c(C)n(C)nc4c3)n2)cc1S(N)(=O)=O.Cl [Pazopanib hydrochloride]
number: 28.09
--
compound: COC(=O)C[C@](O)(CCCC(C)(C)O)C(=O)O[C@@H]1C(OC)=C[C@]23CCCN2CCc2cc4c(cc2[C@H]13)OCO4 [Omacetaxine mepesuccinate]
number: 19.77
--
compound: COc1cc2nccc(Oc3ccc(NC(=O)C4(C(=O)Nc5ccc(F)cc5)CC4)cc3)c2cc1OC [Cabozantinib]
number: 27.05
--
compound: Cc1cc(Nc2ncc3cc(-c4c(Cl)cccc4Cl)c(=O)n(C)c3n2)ccc1F
number: 116.51
--
compound: CC[C@]1(O)C[C@H]2CN(CCc3c([nH]c4ccccc34)[C@@](C(=O)OC)(c3cc4c(cc3OC)N(C=O)[C@H]3[C@@](O)(C(=O)OC)[C@H](OC(C)=O)[C@]5(CC)C=CCN6CC[C@]43[C@@H]65)C2)C1 [Vincristine sulfate]
number: 196.62
--
compound: C[C@]12O[C@H](C[C@]1(O)CO)n1c3ccccc3c3c4c(c5c6ccccc6n2c5c31)CNC4=O [Lestaurtinib, reference compound]
number: 40.57
--
compound: COc1cccc2c1C(=O)c1c(O)c3c(c(O)c1C2=O)C[C@@](O)(C(=O)CO)C[C@@H]3O[C@H]1C[C@H](N)[C@H](O)[C@H](C)O1 [Doxorubicin hydrochloride]
number: 58.26
--
compound: CCN(CCO)CCCOc1ccc2c(Nc3cc(CC(=O)Nc4cccc(F)c4)[nH]n3)ncnc2c1
number: 100.91
--
compound: CN[C@@H]1C[C@H]2O[C@@](C)([C@@H]1OC)n1c3ccccc3c3c4c(c5c6ccccc6n2c5c31)C(=O)NC4 [Staurosporine, reference compound]
number: 14.56
--
compound: Cc1cc(N2CCOCC2)cc2[nH]c(-c3c(NC[C@@H](O)c4cccc(Cl)c4)cc[nH]c3=O)nc12
number: 40.57
--
compound: CC[C@@]1(O)C(=O)OCc2c1cc1n(c2=O)Cc2cc3c(CN(C)C)c(O)ccc3nc2-1 [Topotecan hydrochloride]
number: 58.26
--
compound: Cc1[nH]c(/C=C2\C(=O)Nc3ccc(S(=O)(=O)N(C)c4cccc(Cl)c4)cc32)c(C)c1C(=O)N1CCN(C)CC1
number: 81.14
--
compound: N.N.[Cl][Pt][Cl] [Cisplatin]
number: 98.83
--
compound: CNC(=O)c1ccccc1Sc1ccc2c(/C=C/c3ccccn3)n[nH]c2c1 [AXITINIB]
number: 91.55
--
compound: Cc1c(NC(=O)OC[C@@H]2COCCN2)cn2ncnc(Nc3ccc4c(cnn4Cc4cccc(F)c4)c3)c12
number: 50.98
--
compound: Nc1nc2[nH]cc(CCc3ccc(C(=O)N[C@@H](CCC(=O)O)C(=O)O)cc3)c2c(=O)[nH]1
number: 110.27

----------
experimental-system: FGF14:Nav1.6 C-tail complex (Homo sapiens, UniProt Q92915+Q9UQD0)
Construct: polymerase chain reaction (PCR) amplification of the FGF14 open reading frame (nt 1–855); C-terminal fragment of Nav1.6 (amino acids 1763–1976) fused with CD4ΔC-tail (amino acids 1–395); expressed in transfected cells
protocol-text: Split-luciferase complementation assay (LCA) in Clone V double stable HEK293 cells
Assay type: cell-based
condition-label: CC_NCI screening; LCA luminescence, biological replicate Set 2; normalized to on-plate 0.3% DMSO controls (n=16 per plate)
Field: label. Allowed values: yes (Split Luciferase Assay %Lum Set 2 < 60%) or no (Split Luciferase Assay %Lum Set 2 >= 60%).

compound: CC(C)C[C@H](NC(=O)[C@H](Cc1ccccc1)NC(=O)c1cnccn1)B(O)O [Bortezomib]
group: no
//
compound: COc1cc2c(Oc3ccc4[nH]c(C)cc4c3F)ncnc2cc1OCCCN1CCCC1 [CEDIRANIB]
group: yes
//
compound: C=CCNC1=C2C[C@@H](C)C[C@H](OC)[C@H](O)[C@@H](C)/C=C(\C)[C@H](OC(N)=O)[C@@H](OC)/C=C\C=C(/C)C(=O)NC(=CC1=O)C2=O [Compound 17-AAG]
group: yes
//
compound: Cc1ccc(Nc2nccc(N(C)c3ccc4c(C)n(C)nc4c3)n2)cc1S(N)(=O)=O [PAZOPANIB]
group: no
//
compound: NC1(c2ccc(-c3nc4ccn5c(=O)[nH]nc5c4cc3-c3ccccc3)cc2)CCC1 [MK-2206]
group: yes
//
compound: CN(C)Cc1c(C(=O)NCCOc2ccc(C(=O)NO)cc2)oc2ccccc12 [PCI-24781]
group: no
//
compound: Cc1ccc(-c2cc(C(F)(F)F)nn2-c2ccc(S(N)(=O)=O)cc2)cc1 [Celecoxib]
group: yes
//
compound: Cc1cn(-c2cc(NC(=O)c3ccc(C)c(Nc4nccc(-c5cccnc5)n4)c3)cc(C(F)(F)F)c2)cn1 [Nilotinib]
group: no

----------
System: Clone V cells
protocol-text: CellTiter Blue (CTB) cell viability counter-screen
condition-label: CC_NCI screening; CTB cell viability fluorescence; normalized to on-plate 0.3% DMSO controls
Please respond with Yes when measured Toxicity Assay % Fluor is strictly beneath 90%, and with No in all other cases.

compound: Cc1ccc(Nc2nccc(N(C)c3ccc4c(C)n(C)nc4c3)n2)cc1S(N)(=O)=O [PAZOPANIB]
experimental-system: Clone V cells
group: Yes

compound: CO[C@H]1C(=O)[C@]2(C)[C@@H](OC)C[C@H]3OC[C@@]3(OC(C)=O)[C@H]2[C@H](OC(=O)c2ccccc2)[C@]2(O)C[C@H](OC(=O)[C@H](O)[C@@H](NC(=O)OC(C)(C)C)c3ccccc3)C(C)=C1C2(C)C [Cabazitaxel]
experimental-system: Clone V cells
group: Yes

compound: C[C@]12CC[C@@H]3c4ccc(O)cc4C[C@@H](CCCCCCCCC[S+]([O-])CCCC(F)(F)C(F)(F)F)[C@H]3[C@@H]1CC[C@@H]2O (stereo partly drawn) [Fulvestrant]
experimental-system: Clone V cells
group: Yes

compound: CCCS(=O)(=O)Nc1ccc(F)c(C(=O)c2c[nH]c3ncc(-c4ccc(Cl)cc4)cc23)c1F [PLX4032]
experimental-system: Clone V cells
group: Yes

compound: Cc1ccc(C(=O)Nc2ccc(CN3CCN(C)CC3)c(C(F)(F)F)c2)cc1C#Cc1cnc2cccnn12 [Ponatinib]
experimental-system: Clone V cells
group: Yes

compound: O=C(CCCCCCC(=O)Nc1ccccc1)NO [Vorinostat]
experimental-system: Clone V cells
group: No

compound: C[C@@H](Oc1cc(-c2cnn(C3CCNCC3)c2)cnc1N)c1c(Cl)ccc(F)c1Cl [PF-2341066]
experimental-system: Clone V cells
group: Yes

compound: CN(C)C/C=C/C(=O)Nc1cc2c(Nc3ccc(F)c(Cl)c3)ncnc2cc1O[C@H]1CCOC1 [BIBW2992]
experimental-system: Clone V cells
group: No

compound: Oc1ccc(-c2nc(-c3ccncc3)c(-c3ccc(F)cc3)[nH]2)cc1 [SB 202190]
experimental-system: Clone V cells
group: No
